Target: α-glucosidase from baker's yeast (Saccharomyces cerevisiae)
Sequence (P53341 whole entry): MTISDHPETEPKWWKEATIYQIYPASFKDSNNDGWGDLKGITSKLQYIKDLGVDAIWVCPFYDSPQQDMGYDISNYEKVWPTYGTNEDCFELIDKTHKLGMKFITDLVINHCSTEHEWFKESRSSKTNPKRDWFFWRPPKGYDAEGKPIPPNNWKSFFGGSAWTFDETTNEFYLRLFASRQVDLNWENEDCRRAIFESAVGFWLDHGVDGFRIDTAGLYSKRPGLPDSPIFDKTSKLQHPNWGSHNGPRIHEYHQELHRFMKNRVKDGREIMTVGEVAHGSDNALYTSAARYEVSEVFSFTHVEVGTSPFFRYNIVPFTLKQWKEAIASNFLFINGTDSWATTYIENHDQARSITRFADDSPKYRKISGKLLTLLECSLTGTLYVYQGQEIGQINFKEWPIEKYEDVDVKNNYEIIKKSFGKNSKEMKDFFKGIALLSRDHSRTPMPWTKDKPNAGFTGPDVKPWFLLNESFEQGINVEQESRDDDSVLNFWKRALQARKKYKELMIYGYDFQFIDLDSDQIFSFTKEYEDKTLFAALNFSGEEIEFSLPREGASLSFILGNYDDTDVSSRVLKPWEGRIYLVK
Assay: In vitro α-glucosidase inhibition assay (PNPG substrate, absorbance at 405 nm)
Format: biochemical
Conditions: UA-O and analogues UA-O-a~UA-O-j (Table 2); enzyme 0.1 U/mL, PNPG 1 mM, pH 6.8, 37 °C; mean ± SD; read-out: IC50
Description: In this assay, α-glucosidase from baker’s yeast has been selected and used in this model according to the procedure described in the previous study with a slight modification. The activity of α-glucosidase was determined by monitoring p-nitrophenol (PNP) released from p-nitrophenol-α-D-glycopyranoside (PNPG) at 405 nm. […] The enzyme activity was measured at a fixed substrate concentration, in which a series of sample concentrations were introduced. […]
observation.type: pIC50
pIC50 here: minus log base 10 of the concentration, concentration in moles per litre.

Qu. Return pIC50 measured with α-glucosidase from baker's yeast (Saccharomyces cerevisiae) given this molecule: C[C@@H]1CC[C@]2(C(=O)O)CC[C@]3(C)C(=CCC4[C@@]5(C)CCC(=O)C(C)(C)C5CC[C@]43C)C2[C@H]1C (stereo partly shown) [UA-O]
Ans. 5.61

Ref: paper PMC5372089
